- Tested on: UO-31 renal
- Measurement Description: NCI-60 one-dose screen, 48 h (100 = growth as untreated, 0 = no growth, -100 = all killed)
- Condition Set: 10 µM unless noted
- Method: Growth inhibition of the UO-31 human tumor cell line is measured as a screen for anti-cancer activity. Cells are grown in 96 well plates and exposed to the test compound for 48 hours. Compounds are tested at a single concentration, which is 10^-5 M for most compounds. The reported endpoint is percent growth (GI% or GIPRCNT), where numbers from 0 - 100% represent growth inhibition, and numbers from -100% - 0 represent cell death. For example, a value of 40 represents 60% growth inhibition. […]
About 83,000 compounds went through this panel and 20% of them were active in at least one assay; those are over-represented in the sample as a whole.
Lab note - cut at 70% for growth: true (1) if strictly below, false (0) if not.

Compound: Cc1ccc(C)n1-c1ccccc1-n1c(C)ccc1C
System Name: UO-31 renal
Group Label: false (0)
//
Compound: CCCCNC(=O)Oc1ccc(/C(=C(/C)Cc2ccc(OC)cc2)c2ccc(OCCN(CC)CC)cc2)cc1
System Name: UO-31 renal
Group Label: true (1)
//
Compound: Cc1ccc(C2=Nc3c(N)ncnc3NC(c3cccc(Nc4ccnc5cc(C(F)(F)F)ccc45)c3)C2)cc1 (centres undefined)
System Name: UO-31 renal
Group Label: true (1)

Prompt line: Bench note: check whether C#CCOc1cccc(Nc2ncnc3cc(NC(=O)C=C)ccc23)c1 shows growth below 70%
Response line: true (1)

Prompt line: Bench note: check whether Fc1cnccc1C1CC(c2ccc(N3CCNCC3)cc2)=NN1 (centres undefined) shows growth below 70%
Response line: false (0)

Prompt line: Bench note: check whether c1ccc([P+](c2ccccc2)(c2ccccc2)c2ccc3c4ccc([P+](c5ccccc5)(c5ccccc5)c5ccccc5)c5cccc(c6cccc2c63)c54)cc1 shows growth below 70%
Response line: true (1)

Prompt line: Bench note: check whether O=C(NCCNc1nccc(Nc2ccc(S(=O)(=O)Nc3ccccn3)cc2)n1)c1cccc([N+](=O)[O-])c1 shows growth below 70%
Response line: false (0)

Prompt line: Bench note: check whether CCC(=C(c1ccc(OCCN2CCCCC2)cc1)c1ccc(OCCN2CCCCC2)cc1)c1ccc(Cl)cc1 shows growth below 70%
Response line: true (1)

* * *

- Tested on: SF-295 CNS
- Measurement Description: NCI-60 one-dose screen, 48 h
- Condition Set: 10 µM unless noted
This is part of a sample that, as a whole, favours compounds with a hit. Of some 83,000 tested, about 20% had one in any assay. Calls of active or inactive are those of the source. Rule for the calls: active = growth percent below 10; inactive = the rest.
Just give me one of these, please: yes (1) = active, no (0) = inactive

Compound: CCCCCCCCCCC(CN(CC)CC)C(O)c1ccccc1 (stereo not given)
Group Label: no (0)
--
Compound: CCOC(=O)c1cc(C)n(-c2ccc(C(=O)O)cc2)c1C
Group Label: no (0)
--
Compound: CC1CCN(CCOc2ccc(CNc3ccc4nc(CCC5CCCCC5)[nH]c4c3)cc2)CC1
Group Label: yes (1)
--
Compound: CCCCNC(=O)CC1=C(C)/C(=C/c2[nH]c(-c3ccc[nH]3)cc2OC)N=C1C
Group Label: no (0)
--
Compound: COc1ccc(/C=C/C(=O)c2cccc(OCCCCOc3cccc(C(=O)/C=C/c4ccc(OC)c(OC)c4)c3)c2)cc1OC
Group Label: no (0)
--
Compound: N#Cc1c(-c2ccc(Cl)cc2)nc(NN2C(=O)c3ccccc3C2=O)nc1N1CCOCC1
Group Label: no (0)
--
Compound: CCOC(=O)n1cc(-c2nonc2-c2cn(C(=O)OCC)c3ccc(Br)cc23)c2ccccc21
Group Label: no (0)
--
Compound: Cc1c(O)cc(-c2cnc(Nc3ccccc3)s2)c(O)c1C
Group Label: no (0)
--
Compound: O=C1/C(=C/c2cn(-c3ccccc3)nc2-c2ccccc2)SC(=S)N1C1CCCCC1
Group Label: no (0)

Prompt line: Outcome logged for COCCNC(=O)Nc1ccc2nc(-c3cccs3)c(-c3cccs3)nc2c1 in this assay:
Response line: no (0)

* * *

- Tested on: BT-549 breast
- Measurement Description: NCI-60 one-dose screen, 48 h (100 = growth as untreated, 0 = no growth, -100 = all killed)
- Condition Set: 10 µM unless noted
About 83,000 compounds went through this panel and 20% of them were active in at least one assay; those are over-represented in the sample as a whole.
Reported Endpoint: growth (%)
One number for each entry, in %.

Worked examples follow.
Compound: COC(=O)c1c2c(c(C)[n+]([O-])c1C)C(=O)C(NCc1cccc(OC)c1)=CC2=O
System Name: BT-549 breast
U: %
growth: 57.5
--
Compound: COc1ccc(CNc2c3ccccc3nc3ccccc23)cc1
System Name: BT-549 breast
U: %
growth: 80.1
--
Compound: O=C(O)c1cn(C2CC2)c2cc(N3CCN(C(=O)N(c4ccccc4)c4nc(-c5ccccc5)cs4)CC3)c(F)cc2c1=O
System Name: BT-549 breast
U: %
growth: -13
--
Compound: COc1ccc(Nc2nc(-c3cc(O)c(C)c(C)c3O)cs2)cc1
System Name: BT-549 breast
U: %
growth: 79.1

Kindly give each listed record's growth.
1. COc1ccccc1N1CCCCC1
2. O=C(/C=C/c1ccccc1)Nc1ncc(Cc2ccccc2Cl)s1
3. Cn1cc(-c2nonc2-c2cn(C)c3ccccc23)c2ccccc21
4. O=C1Nc2ccccc2/C1=C/c1nc2ccccc2c(=O)[nH]1
5. Cc1[nH]c(C(=O)Nc2ccc(C(=O)N3CCN(c4cc5c(cc4F)c(=O)c(C(=O)O)cn5C4CC4)CC3)cc2OC(C)C)c(Cl)c1Cl
6. Nc1cc(C(=O)NC[C@H]2CN(c3ccc(N4CCC(C(=O)O)CC4)cc3)C(=O)O2)ccc1Cl

Response line:
[96, 55.2, 31.1, 95, 75.7, 104]

Kindly give each listed record's growth.
1. CC(=O)N1N=C(c2ccc(Nc3nc(Nc4ccccc4)nc(Nc4ccccc4)n3)cc2)CC1c1cccc([N+](=O)[O-])c1 (stereo not given)
2. CCOC(=O)n1ccn(C)c1=S
3. CCO/C=N/C1=C(C#N)C(c2ccc(Cl)cc2)c2sc3c(F)cccc3c2O1 (stereo not given)
4. COc1cc2c(cc1OCCCN1CCN(CCCOc3cc4c(cc3OC)C(=O)N3CC(F)(F)C[C@H]3C=N4)CC1)N=C[C@@H]1CC(F)(F)CN1C2=O
5. COC(=O)/C=C1/SC(=Nc2cccc(OC)c2)N(CCc2c[nH]c3ccc(O)cc23)C1=O
6. COc1ccc(C(=O)N2c3ccccc3Sc3ccccc32)c(OC)c1
7. Oc1c(Br)cc(Br)c2ccc(Cn3cc(-c4ccccc4C(F)(F)F)nn3)nc12
8. CC(C)c1ccc(C(=O)Nc2sc3c(c2C(N)=O)CCC(=O)C3)cc1

Response line:
111
98.7
68.8
-7.9
33.1
16.9
107
-21.9

Kindly give each listed record's growth.
1. O=C1Nc2ccccc2/C1=C/c1cccn1CCCCn1c2ccccc2c(=O)c2ccccc21
2. Cc1cc(C)c2c(c1)N(C)c1ncnc(-n3cnc4cc(C)ccc43)c1CC2C (stereo not given)

Response line:
[74.5, 29.8]

* * *

- System: SF-539 CNS
- Measurement Description: NCI-60 one-dose screen, 48 h
- Condition Set: 10 µM unless noted
About 83,000 compounds went through this panel and 20% of them were active in at least one assay; those are over-represented in the sample as a whole. Calls of active or inactive are those of the source. Rule for the calls: active = growth percent below 10; inactive = the rest.
Just give me one of these, please: active, inactive

Molecule: N#Cc1c(-c2ccccc2)cc(-c2ccccc2)n(CCCC(=O)Nc2ccccc2N)c1=O
System Name: SF-539 CNS
Group Label: inactive
//
Molecule: CC(O)(c1ccccc1)C(c1ccccc1)C1CCCCN1 (centres undefined)
System Name: SF-539 CNS
Group Label: inactive
//
Molecule: Nc1ncc(-c2ccc3ncnc(Nc4cccc(Cl)c4)c3c2)cn1
System Name: SF-539 CNS
Group Label: inactive

Prompt line: Outcome logged for COc1cc(C2CC(c3ccc(Nc4nc(Nc5ccc(Cl)cc5)nc(Nc5ccc(Cl)cc5)n4)cc3)=NN2C(C)=O)cc(OC)c1OC (centres undefined) in this assay:
Response line: inactive

Prompt line: Outcome logged for Nc1[nH]n2cc(-c3ccccc3)nc2c1N=Nc1ccc(S(N)(=O)=O)cc1 in this assay:
Response line: inactive

Prompt line: Outcome logged for C#COc1cccc(Nc2c(C#N)cnc3ncc(NC(=O)CCl)cc23)c1 in this assay:
Response line: active

Prompt line: Outcome logged for OCCn1cc(-c2nc(-c3c[nH]c4ncccc34)cs2)c2ccccc21 in this assay:
Response line: inactive

Prompt line: Outcome logged for Cc1c[n+](Cc2ccc3ccccc3c2)cn1Cc1ccc2ccccc2c1 in this assay:
Response line: inactive

* * *

- System: RXF 393 renal
- Measurement Description: NCI-60 one-dose screen, 48 h
- Condition Set: 10 µM unless noted
The panel holds about 83,000 compounds, 20% with a hit somewhere; the sample as a whole holds those more often. Active and inactive are the calls of the source. The calls were made as follows: active = growth percent below 10; inactive = the rest.
Just give me one of these, please: active, inactive

Molecule: N=C(N)c1ccc(-c2ccc(-c3ccc(Cl)cc3Cl)s2)cc1
Group Label: inactive
--
Molecule: NC(Cc1ccc(O)c([N+](=O)[O-])c1)C(=O)O (centres undefined)
Group Label: inactive
--
Molecule: COc1ccc(-c2ccc(=O)oc2-c2cc(OC)c(OC)c(OC)c2)cc1O
Group Label: active
--
Molecule: COc1ccc(/C=C(\C#N)n2nnc3cc(Cl)ccc32)cc1
Group Label: active

Prompt line: Outcome logged for O=C(COc1ccc(-c2nc3cc(Cl)c(Cl)cc3[nH]2)cc1)N=Nc1c(O)[nH]c2ccc(Cl)cc12 in this assay:
Response line: inactive

Prompt line: Outcome logged for CCOc1ccccc1Cn1ccnc1CCc1c(Cl)c(O)cc(O)c1C(=O)OC in this assay:
Response line: inactive

Prompt line: Outcome logged for O=C1/C(=C/c2cn(-c3ccccc3)nc2-c2ccccc2)SC(=S)N1C1CCCCC1 in this assay:
Response line: inactive

Prompt line: Outcome logged for CCOC(=O)NC(C)C in this assay:
Response line: inactive

Prompt line: Outcome logged for COc1cc2c(cc1OCCCN1CCN(CCCOc3cc4c(cc3OC)C(=O)N3CC(F)(F)C[C@H]3C=N4)CC1)N=C[C@@H]1CC(F)(F)CN1C2=O in this assay:
Response line: inactive

Prompt line: Outcome logged for Cc1ccc(C2=Nc3c(N)ncnc3NC(c3cccc(Nc4ccnc5cc(C(F)(F)F)ccc45)c3)C2)cc1 (centres undefined) in this assay:
Response line: active

Prompt line: Outcome logged for CCCCNC(=O)Oc1ccc(/C(=C(/C)Cc2ccc(OC)cc2)c2ccc(OCCN3CCCC3)cc2)cc1 in this assay:
Response line: inactive

Prompt line: Outcome logged for CC1=C([Se]CC(OC(=O)CC[Se]c2ccccc2)C(=O)NC(C)(C)C)C(=O)c2ccccc2C1=O (centres undefined) in this assay:
Response line: active

Prompt line: Outcome logged for Cc1ccc(NC(=O)Cn2cc(CN3CCN(c4ccnc5cc(Cl)ccc45)CC3)nn2)cc1 in this assay:
Response line: inactive

Prompt line: Outcome logged for O=C(Nc1nc2ccc(C(=O)N3CCN(/C=C/c4ccccc4)CC3)cc2s1)c1ccc(NCCc2ccccc2)c([N+](=O)[O-])c1 in this assay:
Response line: inactive

Prompt line: Outcome logged for O=C(Nc1nc(-c2ccc(Cl)cc2)nc2c1sc(=S)n2-c1ccccc1)C(F)(F)F in this assay:
Response line: inactive
